experimentalSystem: interaction between recombinant K-Ras4B G12C mutant protein and cRAF RAS-binding domain (cRAF-RBD) (Homo sapiens, UniProt P01116, G12C)
Sequence (P01116 with tags, fused parts or gaps isoform P01116-2 G12C): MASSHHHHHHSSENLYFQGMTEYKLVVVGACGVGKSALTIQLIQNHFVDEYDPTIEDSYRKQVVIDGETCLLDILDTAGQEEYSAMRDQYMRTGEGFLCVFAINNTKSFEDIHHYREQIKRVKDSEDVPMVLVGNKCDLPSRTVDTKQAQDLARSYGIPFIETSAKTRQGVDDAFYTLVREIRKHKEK
protocolDetails: Inhibitory activity on interaction between KRAS G12C and cRAF (Alpha technology)
conditionDescription: GMPPNP-bound KRAS G12C incubated with compound at 25° C. for 1 hour, then cRAF-RBD; Alpha signal
experimentalReadout: IC50 (µM)
Write down the numeric answer in µM and omit the unit.

Example entries and their recorded answers appear below.
molecule: Cc1cc2c(nc([C@@H](C)O)n2C)c(Cl)c1-c1cccn2c(C(=O)c3cc(F)c(NC(=O)/C=C/CNC(C)(C)C)c(F)c3)ccc12
IC50 / µM: 0.041
//
molecule: COc1c(-c2cccn3c(C(=O)c4cc(F)c(NC(=O)/C=C/CN[C@H]5CC[C@H](OC)CC5)c(F)c4)ccc23)c(C(F)(F)F)cc2c1nc(C)n2C (single isomer, unassigned) [Example 60-1]
IC50 / µM: 1.6

Read the next record carefully.
Query: Look up IC50 for this molecule: Cc1nc2c(Cl)c(-c3cccn4c(C(=O)c5cc(F)c(NC(=O)/C=C/CNC(C)(C)C)c(F)c5)ccc34)c(C(F)(F)F)cc2n1C (single isomer, unassigned) [Example 56-2]
Result: 0.021

---

Test system: MIA PaCa-2 cells
protocolDetails: Growth inhibition activity on KRAS-G12C mutant cell line (MIA PaCa-2), CellTiter-Glo 3D
Type: cell-based, human
conditionDescription: MIA PaCa-2, 3-day culture with compound
List of pIC50 values.
For clarity, pIC50 is expressed as the negative log10 of concentration in mol/L.

molecule: Cc1cc2c(nc(C)n2C)c(Cl)c1-c1cccn2c(C(=O)c3cc(F)c(NC(=O)/C=C/CNC(C)(C)C)c(F)c3)ccc12 (single isomer, unassigned) [Example 18-1]
experimentalReadout: pIC50
valueObserved: 7.54
--
molecule: COc1c(-c2cccn3c(C(=O)c4cc(F)c(NC(=O)/C=C/CN[C@H]5CC[C@H](OC)CC5)c(F)c4)ccc23)c(C)cc2c1nc(C)n2C (single isomer, unassigned) [Example 39-2]
experimentalReadout: pIC50
valueObserved: 7.36

Query: Fill blank: measured pIC50 of the molecule COc1c(-c2cccn3c(C(=O)c4cc(F)c(NC(=O)/C=C/CNC(C)(C)C)c(F)c4)ccc23)c(C)cc2c1nc(C)n2C (single isomer, unassigned) [Example 40-1] is ____.
Result: 6.47

Query: pIC50; subject: CO[C@H]1CC[C@H](NC/C=C/C(=O)Nc2c(F)cc(C(=O)c3ccc4c(-c5c(C(C)C)cc6c(nc(C)n6C)c5Cl)cccn34)cc2F)CC1 (single isomer, unassigned) [Example 71-1]
Result: 6.89

Query: Returns the measured pIC50 for the input molecule. Input: CO[C@H]1CC[C@H](NC/C=C/C(=O)Nc2c(F)cc(C(=O)c3ccc4c(-c5c(C)cc6c(nc(C)n6C)c5Cl)cccn34)cc2F)CC1 (single isomer, unassigned) [Example 19-2]
Result: 6.80

---

experimentalSystem: interaction between recombinant K-Ras4B G12C mutant protein and cRAF RAS-binding domain (cRAF-RBD) (Homo sapiens, UniProt P01116, G12C)
protocolDetails: Inhibitory activity on interaction between KRAS G12C and cRAF (Alpha technology)
conditionDescription: GMPPNP-bound KRAS G12C incubated with compound at 25° C. for 1 hour, then cRAF-RBD; Alpha signal
experimentalReadout: IC50 (nM)
# unit: nM | format: bare number

compound: CO[C@H]1CC[C@H](NC/C=C/C(=O)Nc2c(F)cc(C(=O)c3ccc4c(-c5cc6ncn(C)c6cc5O)cccn34)cc2F)CC1
experimentalReadout: IC50
valueObserved: 23

Query: IC50; subject: "Cc1nc2cc(-c3cccn4c(C(=O)c5cc(F)c(NC(=O)/C=C/CNC(C)(C)CF)c(F)c5)ccc34)c(C(F)(F)F)cc2n1C"
Result: 75

Query: Data request, read-out IC50, for COc1c(-c2cccn3c(C(=O)c4cc(F)c(NC(=O)/C=C/CNC5(C)CC5)c(F)c4)cnc23)c(C(F)(F)F)cc2c1nc(C)n2C (single isomer, unassigned) [Example 105-1]
Result: 29.8

# credit: patent US20240246968A1
